Species: Rattus norvegicus
methodNotes: DrugMatrix - Regimen: Daily Repeat
Assay type: toxicity, organism-based, Sprague-Dawley
Parameters: regimen Daily Repeat, gender Male, age 6-8 weeks
assayContext: in vivo, ip, 10 mg/kg, […], tissue Blood, route intraperitoneal, dose level High, time 14 day, vehicle 100 % SALINE
endpointName: ABSOLUTE MONOCYTE (cells/µL)
The reply should be a number in cells/µL, with the unit left off.

Request: Give its ABSOLUTE MONOCYTE value. Item: COBALTOUS CHLORIDE
Result: 260

---

Species: Rattus norvegicus
methodNotes: DrugMatrix - Regimen: Daily Repeat
Assay type: toxicity, organism-based, Sprague-Dawley
Design: regimen Daily Repeat, gender Male, age 6-8 weeks
assayContext: in vivo, po, 0 mg/kg, 72 h, tissue Plasma, route oral GAVAGE, dose level Control, time 3 day, […]
Listed next: entries and their corresponding POTASSIUM.
The reply should be a number in MEQ/L, with the unit left off.

1. Cc1ccc(C)c(OCCCC(C)(C)C(=O)O)c1 | 4.79
2. CCc1ccc(CCOc2ccc(CC3SC(=O)NC3=O)cc2)nc1 (centres undefined) | 5.41
3. c1ccoc1 | 6.7
4. O=c1c(-c2ccc(O)cc2)coc2cc(O)cc(O)c12 | 5.03
5. ClC(Cl)(Cl)Cl [CARBON TETRACHLORIDE] | 5.43

Request: Give its POTASSIUM value. Item: `CCCCC(=O)N(Cc1ccc(-c2ccccc2-c2nnn[nH]2)cc1)[C@H](C(=O)O)C(C)C`
Result: 5.22

Request: Give its POTASSIUM value. Item: `CC(=O)Oc1ccccc1C(=O)O`
Result: 5.78

Request: Give its POTASSIUM value. Item: `CC(C)c1c(C(=O)Nc2ccccc2)c(-c2ccccc2)c(-c2ccc(F)cc2)n1CC[C@@H](O)C[C@@H](O)CC(=O)O`
Result: 5.03

Request: Give its POTASSIUM value. Item: CS(=O)(=O)Nc1ccc([N+](=O)[O-])cc1Oc1ccccc1 [NIMESULIDE]
Result: 5.79
